The measurements presented in this section are drawn from patent US20240182536A1.

Target: T1, human IL-18 binding protein (IL-18BP) (human, UniProt O95998 31-194)
T1 construct: also called hu IL-18BP; hIL18BP
T1 sequence (looked up): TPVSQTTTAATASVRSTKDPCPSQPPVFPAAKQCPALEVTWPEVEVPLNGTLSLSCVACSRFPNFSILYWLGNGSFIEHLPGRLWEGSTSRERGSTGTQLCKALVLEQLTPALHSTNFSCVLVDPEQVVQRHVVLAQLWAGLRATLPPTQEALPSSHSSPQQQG
Experiment: Octet BLI
Entries and their measured Kd follow.

BINDER: IL-18 variant G3E, K53S (ligand) YFEKLESKLSVIRNLNDQVLFIDQGNRPLFEDMTDSDMRDNAPRTIFIISMYSDSQPRGMAVTISVKSEKISTLSSENKIISFKEMNPPDNIKDTKSDIIFFQRSVPGHDNKMQFESSSYEGYFLASEKERDLFKLILKKEDELGDRSIMFTVQNED
Kd [nM]: 396
--
BINDER: IL-18 variant G3V, M60K (ligand) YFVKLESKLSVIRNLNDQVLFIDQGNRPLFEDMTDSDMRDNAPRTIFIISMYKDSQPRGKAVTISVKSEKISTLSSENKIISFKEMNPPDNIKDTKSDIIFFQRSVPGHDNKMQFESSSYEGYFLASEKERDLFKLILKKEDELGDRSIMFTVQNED
Kd [nM]: 91
--
BINDER: IL-18 variant G3R, K53S (ligand) YFRKLESKLSVIRNLNDQVLFIDQGNRPLFEDMTDSDMRDNAPRTIFIISMYSDSQPRGMAVTISVKSEKISTLSSENKIISFKEMNPPDNIKDTKSDIIFFQRSVPGHDNKMQFESSSYEGYFLASEKERDLFKLILKKEDELGDRSIMFTVQNED
Kd [nM]: 4.03
--
BINDER: IL-18 variant G3T, M60K, D157E (ligand) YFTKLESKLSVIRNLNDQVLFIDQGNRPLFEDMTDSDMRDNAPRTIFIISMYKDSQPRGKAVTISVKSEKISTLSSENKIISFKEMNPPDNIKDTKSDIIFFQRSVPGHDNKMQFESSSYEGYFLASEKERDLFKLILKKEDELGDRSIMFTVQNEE
Kd [nM]: 686
